# System Tested: COX-1 (Homo sapiens)
# Sequence (P23219 24-599): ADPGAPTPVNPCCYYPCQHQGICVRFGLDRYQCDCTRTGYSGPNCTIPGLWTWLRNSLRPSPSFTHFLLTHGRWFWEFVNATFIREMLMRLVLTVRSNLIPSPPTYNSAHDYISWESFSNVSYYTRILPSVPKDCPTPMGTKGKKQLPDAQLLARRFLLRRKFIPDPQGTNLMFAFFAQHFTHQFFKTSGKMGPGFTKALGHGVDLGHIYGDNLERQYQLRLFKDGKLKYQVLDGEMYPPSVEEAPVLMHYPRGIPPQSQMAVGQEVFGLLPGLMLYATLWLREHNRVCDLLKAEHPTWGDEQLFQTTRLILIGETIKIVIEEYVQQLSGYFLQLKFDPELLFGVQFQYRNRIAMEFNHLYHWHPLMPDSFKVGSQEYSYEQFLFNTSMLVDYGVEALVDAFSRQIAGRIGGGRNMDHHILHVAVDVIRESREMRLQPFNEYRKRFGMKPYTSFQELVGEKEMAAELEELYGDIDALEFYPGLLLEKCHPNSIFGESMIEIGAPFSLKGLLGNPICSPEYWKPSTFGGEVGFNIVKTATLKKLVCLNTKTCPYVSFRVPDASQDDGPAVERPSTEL
# Method Summary: biochemical
# Type: biochemical
# Run Parameters: Table III; U937
pIC50: −log10 of the molar value.
Value Type: pIC50

Compound | Endpoint Value
CC1(C)OC(=O)C(Oc2ccc(Cl)c(Cl)c2)=C1c1ccc(S(C)(=O)=O)cc1 | 6.00
CC1(C)OC(=O)C(C(=O)c2ccc(F)c(F)c2)=C1c1ccc(S(C)(=O)=O)cc1 | < 4.52
CC1(C)OC(=O)C(C(=O)c2ccccc2)=C1c1ccc(S(C)(=O)=O)cc1 [Example 19b] | < 5.00
CC1(C)OC(=O)C(Nc2ccccc2)=C1c1ccc(S(C)(=O)=O)cc1 | < 5.00
Cc1cccc(OC2=C(c3ccc(S(C)(=O)=O)cc3)C(C)(C)OC2=O)n1 | < 5.00
CC1(C)OC(=O)C(OC2CCCCC2)=C1c1ccc(S(C)(=O)=O)cc1 | < 5.00
CC1(C)OC(=O)C(Oc2ccc(F)cc2F)=C1c1ccc(S(C)(=O)=O)cc1 | 6.52
CC1(C)OC(=O)C(Cc2ccccc2)=C1c1ccc(S(C)(=O)=O)cc1 | < 5.00
CC1(C)OC(=O)C(Oc2cccc(F)c2)=C1c1ccc(S(C)(=O)=O)cc1 | 5.52
NS(=O)(=O)c1ccc(C2=C(Sc3ccccc3)C(=O)OC23CCCC3)cc1 | < 6.00
CC1(C)OC(=O)C(Sc2ccc(F)cc2)=C1c1ccc(S(C)(=O)=O)cc1 | < 5.00
CC1(C)OC(=O)C(Cc2ccc(F)cc2)=C1c1ccc(S(C)(=O)=O)cc1 | < 4.52
CN(C1=C(c2ccc(S(C)(=O)=O)cc2)C(C)(C)OC1=O)c1ccccc1 | < 5.00
CC1(C)OC(=O)C(C(O)c2ccc(F)c(F)c2)=C1c1ccc(S(C)(=O)=O)cc1 (centres unmarked) | < 5.00

Data provenance is patent US5981576A.
